Molecular target: T1, Cynomolgus monkey CD1a protein (Cynomolgus monkey)
T1 chain: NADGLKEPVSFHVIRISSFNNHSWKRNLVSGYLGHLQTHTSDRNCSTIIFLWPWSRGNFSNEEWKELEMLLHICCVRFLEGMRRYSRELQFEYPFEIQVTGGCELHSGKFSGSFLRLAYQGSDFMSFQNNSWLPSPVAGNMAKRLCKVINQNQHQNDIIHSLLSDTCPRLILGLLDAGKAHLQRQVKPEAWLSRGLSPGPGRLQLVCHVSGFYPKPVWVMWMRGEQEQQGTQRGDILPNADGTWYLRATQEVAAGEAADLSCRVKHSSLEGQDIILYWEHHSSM
Assay: ELISA, 0.01 µg/ml antibody

- BINDER: "111 (VR12113) (antibody, V domains shown, also called OX111) VH: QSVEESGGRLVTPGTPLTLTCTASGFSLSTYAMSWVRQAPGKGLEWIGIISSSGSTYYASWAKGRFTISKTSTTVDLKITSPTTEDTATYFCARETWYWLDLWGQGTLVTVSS VL: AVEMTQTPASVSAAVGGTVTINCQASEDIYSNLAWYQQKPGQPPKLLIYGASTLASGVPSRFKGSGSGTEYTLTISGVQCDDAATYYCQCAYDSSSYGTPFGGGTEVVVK"
  Optical Density (OD): "0.48 OD"
- BINDER: "116 (VR12117) (antibody, V domains shown, also called OX116) VH: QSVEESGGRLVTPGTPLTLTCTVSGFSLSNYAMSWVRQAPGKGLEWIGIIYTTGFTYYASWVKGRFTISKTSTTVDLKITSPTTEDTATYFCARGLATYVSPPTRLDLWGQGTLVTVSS VL: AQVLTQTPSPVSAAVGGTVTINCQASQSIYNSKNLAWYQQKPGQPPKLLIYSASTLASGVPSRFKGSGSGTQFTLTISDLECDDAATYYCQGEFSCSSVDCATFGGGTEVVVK"
  Optical Density (OD): "0.07 OD"
- BINDER: "77A (VR11851) (antibody, V domains shown, also called OX77a; antibody 77a) VH: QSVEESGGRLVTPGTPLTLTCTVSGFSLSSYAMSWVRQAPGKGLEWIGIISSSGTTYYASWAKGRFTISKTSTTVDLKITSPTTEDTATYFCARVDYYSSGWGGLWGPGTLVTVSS VL: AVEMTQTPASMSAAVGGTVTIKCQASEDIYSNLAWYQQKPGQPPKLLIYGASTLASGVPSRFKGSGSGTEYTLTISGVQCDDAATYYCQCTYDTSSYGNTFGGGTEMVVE"
  Optical Density (OD): "0.1 OD"
- BINDER: "110 (VR12112) (antibody, V domains shown, also called OX110; antibody 110) VH: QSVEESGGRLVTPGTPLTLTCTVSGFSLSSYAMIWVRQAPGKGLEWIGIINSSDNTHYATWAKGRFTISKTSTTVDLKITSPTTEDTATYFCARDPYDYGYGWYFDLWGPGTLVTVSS VL: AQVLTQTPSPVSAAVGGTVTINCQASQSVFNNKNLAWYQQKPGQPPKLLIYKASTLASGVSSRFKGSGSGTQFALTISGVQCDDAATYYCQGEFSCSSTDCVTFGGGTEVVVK"
  Optical Density (OD): "0.22 OD"
- BINDER: "16 (VR11834) (antibody, V domains shown, also called OX16; antibody 16) VH: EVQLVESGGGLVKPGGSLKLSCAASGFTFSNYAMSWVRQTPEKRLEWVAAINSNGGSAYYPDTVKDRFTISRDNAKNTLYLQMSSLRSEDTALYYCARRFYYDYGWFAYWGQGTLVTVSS VL: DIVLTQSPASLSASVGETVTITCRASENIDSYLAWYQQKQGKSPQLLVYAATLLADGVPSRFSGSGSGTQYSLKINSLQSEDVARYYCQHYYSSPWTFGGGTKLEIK"
  Optical Density (OD): "0.46 OD"
